The measurements presented in this section are drawn from the supplement of paper PMC10127200.

- Tested on: OVCAR4
- protocol-notes: Euclidean distance of Cell Painting phenotypic profile (signed KS, 77 features) to DMSO centroid (dimensionless distance); 5 or 10 uM (library dependent); higher = stronger phenotypic change vs DMSO (phenoactivity)
- measurement-setup: 48 h
Counter-ions that a name gives are not always drawn.
Assign Fulfilled whenever Euclidean distance does not fall below 2; assign Not fulfilled whenever it does.

compound=CN1CCN(C(=O)c2cc3cc(Cl)ccc3[nH]2)CC1 system_tested=OVCAR4 assigned_label="Not fulfilled"
compound=CC1(C)[C@@H](O)CC[C@]2(C)[C@H]3C(=O)C=C4[C@@H]5C[C@@](C)(C(=O)O)CC[C@]5(C)CC[C@@]4(C)[C@]3(C)CC[C@@H]12 system_tested=OVCAR4 assigned_label="Not fulfilled"
compound=CCNC(=O)Nc1ccc(-c2nc3c(c(N4CCOC[C@@H]4C)n2)CCN(C2COC2)C3)cc1 system_tested=OVCAR4 assigned_label=Fulfilled
compound=CCCc1cc(C)[nH]c(=O)c1CNC(=O)c1cc(-c2ccc(N3CCN(C(C)C)CC3)nc2)cc2c1cnn2C(C)C system_tested=OVCAR4 assigned_label="Not fulfilled"
compound="NC(=O)c1cccc2cn(-c3ccc([C@@H]4CCCNC4)cc3)nc12 [Niraparib (MK-4827) tosylate]" system_tested=OVCAR4 assigned_label="Not fulfilled"
